Answer each item with its documented surviving fraction ratio K562 SF3B1 K700E / K562 SF3B1 WT.
- Test system: K562 SF3B1 K700E vs K562 SF3B1 WT
- Assay comment: surviving fraction ratio K562 SF3B1 K700E / K562 SF3B1 WT (each relative to DMSO); higher = less selective killing of SF3B1 K700E cells
- Test context: 5nM; 5 days
Numbers only.

NS(=O)(=O)OC[C@@H]1C[C@@H](n2ccc3c(N[C@H]4CCc5ccccc54)ncnc32)C[C@@H]1O 0.772
COc1cc2nccc(Oc3ccc(NC(=O)NC4CC4)c(Cl)c3)c2cc1C(N)=O 0.763

Hey, can you go through the list below and give me surviving fraction ratio K562 SF3B1 K700E / K562 SF3B1 WT for every item?
1. C[C@@H]1CN(CC(=O)Nc2ccc3c(c2)Cc2cccc(-c4cc(=O)cc(N5CCOCC5)o4)c2S3)C[C@H](C)O1
2. Cc1nc(Nc2ncc(C(=O)Nc3c(C)cccc3Cl)s2)cc(N2CCN(CCO)CC2)n1

1: 0.887; 2: 1.86

----------
- Test system: K562 SF3B1 K700E vs K562 SF3B1 WT
- Assay comment: surviving fraction ratio K562 SF3B1 K700E / K562 SF3B1 WT (each relative to DMSO); higher = less selective killing of SF3B1 K700E cells
- Test context: 0.5nM; 5 days
Outcome label depends on surviving fraction ratio K562 SF3B1 K700E / K562 SF3B1 WT relative to 0.9: at/above gives Satisfied, below gives Not satisfied.

Please review the entries below; each comes with its answer.
Nc1nc(=S)c2[nH]cnc2[nH]1 Satisfied
CC(=O)c1c(C)c2cnc(Nc3ccc(N4CCNCC4)cn3)nc2n(C2CCCC2)c1=O Not satisfied
CN(C)C/C=C/C(=O)Nc1cc2c(Nc3ccc(F)c(Cl)c3)ncnc2cc1O[C@H]1CCOC1 Satisfied
C=CCNC1=C2C[C@@H](C)C[C@H](OC)[C@H](O)[C@@H](C)/C=C(\C)[C@H](OC(N)=O)[C@@H](OC)/C=C\C=C(/C)C(=O)NC(=CC1=O)C2=O Satisfied

Is it the case that Cn1ncnc1[C@H]1c2n[nH]c(=O)c3cc(F)cc(c23)N[C@@H]1c1ccc(F)cc1 has surviving fraction ratio K562 SF3B1 K700E / K562 SF3B1 WT reaching or exceeding 0.9?
Not satisfied

Is it the case that C=CC(=O)Nc1cc2c(Nc3ccc(F)c(Cl)c3)ncnc2cc1OCCCN1CCOCC1 has surviving fraction ratio K562 SF3B1 K700E / K562 SF3B1 WT reaching or exceeding 0.9?
Not satisfied

Is it the case that CC1(C)CC(=O)c2c(C(F)(F)F)nn(-c3ccc(C(N)=O)c(N[C@H]4CC[C@H](OC(=O)CN)CC4)c3)c2C1 has surviving fraction ratio K562 SF3B1 K700E / K562 SF3B1 WT reaching or exceeding 0.9?
Satisfied

Is it the case that Cc1cn(-c2cc(NC(=O)c3ccc(C)c(Nc4nccc(-c5cccnc5)n4)c3)cc(C(F)(F)F)c2)cn1 has surviving fraction ratio K562 SF3B1 K700E / K562 SF3B1 WT reaching or exceeding 0.9?
Not satisfied

----------
- System: K562 SF3B1 K700E vs K562 SF3B1 WT
- Assay comment: surviving fraction ratio K562 SF3B1 K700E / K562 SF3B1 WT (each relative to DMSO); higher = less selective killing of SF3B1 K700E cells
- Test context: 0.5nM; 5 days
Experimental endpoint: surviving fraction ratio K562 SF3B1 K700E / K562 SF3B1 WT

Would you please look over these solved cases?
Molecule	Data value
CNCc1ccc(-c2[nH]c3cc(F)cc4c3c2CCNC4=O)cc1	0.834
Cc1ccc(-c2cc(C(F)(F)F)nn2-c2ccc(S(N)(=O)=O)cc2)cc1 [celecoxib]	0.751
Cc1nc(Nc2n[nH]c3c2CN(C(=O)N[C@H](CN(C)C)c2ccccc2)C3(C)C)c2sccc2n1	0.912

Kindly review the next molecule as well.
May I ask what surviving fraction ratio K562 SF3B1 K700E / K562 SF3B1 WT has been recorded for COc1ccc(C2=N[C@@H](c3ccc(Cl)cc3)[C@@H](c3ccc(Cl)cc3)N2C(=O)N2CCNC(=O)C2)c(OC(C)C)c1 [Nutlin3] ?
1

----------
- Test system: K562 SF3B1 K700E vs K562 SF3B1 WT
- Assay comment: surviving fraction ratio K562 SF3B1 K700E / K562 SF3B1 WT (each relative to DMSO); higher = less selective killing of SF3B1 K700E cells
- Test context: 5nM; 5 days
Where a name gives a salt, the structure may show the parent alone.
Experimental endpoint: surviving fraction ratio K562 SF3B1 K700E / K562 SF3B1 WT
Numbers only.

Would you please look over these solved cases?
Compound	Study system	Data value
CS(=O)(=O)CCNCc1ccc(-c2ccc3ncnc(Nc4ccc(OCc5cccc(F)c5)c(Cl)c4)c3c2)o1	K562 SF3B1 K700E vs K562 SF3B1 WT	0.828
CN(C)CC[C@H](CSc1ccccc1)Nc1ccc(S(=O)(=O)NC(=O)c2ccc(N3CCN(Cc4ccccc4-c4ccc(Cl)cc4)CC3)cc2)cc1[N+](=O)[O-]	K562 SF3B1 K700E vs K562 SF3B1 WT	0.761
Nc1nc(=S)c2[nH]cnc2[nH]1	K562 SF3B1 K700E vs K562 SF3B1 WT	0.914

Hey, can you go through the list below and give me surviving fraction ratio K562 SF3B1 K700E / K562 SF3B1 WT for every item?
1. COc1ccc(C2=N[C@@H](c3ccc(Cl)cc3)[C@@H](c3ccc(Cl)cc3)N2C(=O)N2CCNC(=O)C2)c(OC(C)C)c1
2. Cc1cn(-c2cc(NC(=O)c3ccc(C)c(Nc4nccc(-c5cccnc5)n4)c3)cc(C(F)(F)F)c2)cn1
3. Nc1ccn([C@@H]2O[C@H](CO)[C@@H](O)C2(F)F)c(=O)n1 [gemcitabine.HCl]
4. O=C(O)CC[C@H]1CC[C@@](c2cc(F)ccc2F)(S(=O)(=O)c2ccc(Cl)cc2)CC1

0.843
0.537
0.465
0.989

----------
- Tested on: K562 SF3B1 K700E vs K562 SF3B1 WT
- Assay comment: surviving fraction ratio K562 SF3B1 K700E / K562 SF3B1 WT (each relative to DMSO); higher = less selective killing of SF3B1 K700E cells
- Test context: 5nM; 5 days
Where a name gives a salt, the structure may show the parent alone.
Experimental endpoint: surviving fraction ratio K562 SF3B1 K700E / K562 SF3B1 WT
Give bare numbers.

Would you please look over these solved cases?
Molecule	Data value
Oc1ccc(/C=C/c2cc(O)cc(O)c2)cc1 [resveratrol]	0.856
CCCS(=O)(=O)Nc1ccc(F)c(C(=O)c2c[nH]c3ncc(Cl)cc23)c1F	1.13
Cn1ncnc1[C@H]1c2n[nH]c(=O)c3cc(F)cc(c23)N[C@@H]1c1ccc(F)cc1 [talazoparib]	0.775
CC[C@@H]1C(=O)N(C)c2cnc(Nc3ccc(C(=O)NC4CCN(C)CC4)cc3OC)nc2N1C1CCCC1	0.455
COc1cccc2c1C(=O)c1c(O)c3c(c(O)c1C2=O)C[C@@](O)(C(=O)CO)C[C@@H]3O[C@H]1C[C@H](N)[C@H](O)[C@H](C)O1 [doxorubicin.HCl]	0.718
CC/C(=C(\c1ccc(O)cc1)c1ccc(OCCN(C)C)cc1)c1ccccc1 [4-OH-tamoxifen]	0.857

Hey, can you go through the list below and give me surviving fraction ratio K562 SF3B1 K700E / K562 SF3B1 WT for every item?
1. CNCc1ccc(-c2[nH]c3cc(F)cc4c3c2CCNC4=O)cc1
2. C=CCNC1=C2C[C@@H](C)C[C@H](OC)[C@H](O)[C@@H](C)/C=C(\C)[C@H](OC(N)=O)[C@@H](OC)/C=C\C=C(/C)C(=O)NC(=CC1=O)C2=O

[0.825, 0.811]

----------
Answer each item with its documented surviving fraction ratio K562 SF3B1 K700E / K562 SF3B1 WT.
- Test system: K562 SF3B1 K700E vs K562 SF3B1 WT
- Assay comment: surviving fraction ratio K562 SF3B1 K700E / K562 SF3B1 WT (each relative to DMSO); higher = less selective killing of SF3B1 K700E cells
- Test context: 10nM; 5 days
Give bare numbers.

Would you please look over these solved cases?
Compound	Data value
Cn1cc(C2=Nc3cc(NC(=O)C(N)C4CCCCC4)cc4c3C2=CNNC4=O)cn1 (stereo not given)	0.834
CC[C@@H]1C(=O)N(C)c2cnc(Nc3ccc(C(=O)NC4CCN(C)CC4)cc3OC)nc2N1C1CCCC1	2.45
CCn1c(C(=O)N(C2CC2)C2CC2)cc2c3c(ncn3C)c(Nc3cc(C)n(C)n3)nc21	0.938
CNC(=O)c1ccc(N2C(=S)N(c3ccc(C#N)c(C(F)(F)F)c3)C(=O)C2(C)C)cc1F	1.07
CC(=O)O[C@H]1C(=O)[C@@]2(C)[C@H]([C@H](OC(=O)c3ccccc3)[C@]3(O)C[C@H](OC(=O)[C@H](O)[C@@H](NC(=O)c4ccccc4)c4ccccc4)C(C)=C1C3(C)C)[C@]1(OC(C)=O)CO[C@@H]1C[C@@H]2O	1.42

Hey, can you go through the list below and give me surviving fraction ratio K562 SF3B1 K700E / K562 SF3B1 WT for every item?
1. C=CCNC1=C2C[C@@H](C)C[C@H](OC)[C@H](O)[C@@H](C)/C=C(\C)[C@H](OC(N)=O)[C@@H](OC)/C=C\C=C(/C)C(=O)NC(=CC1=O)C2=O
2. CC/C(=C(\c1ccc(O)cc1)c1ccc(OCCN(C)C)cc1)c1ccccc1
3. NS(=O)(=O)OC[C@@H]1C[C@@H](n2ccc3c(N[C@H]4CCc5ccccc54)ncnc32)C[C@@H]1O
4. CCCCCCCCCCCCCCCC(=O)Nc1ccn([C@@H]2O[C@H](CO)[C@@H](O)[C@@H]2C#N)c(=O)n1

1. 0.776
2. 0.778
3. 0.687
4. 1.11
